Numbers sourced from patent US20260078130A1.

- system_tested: human enzyme NAMPT (full length) (Homo sapiens, UniProt P43490)
- Construct: human enzyme NAMPT (full length)
- Sequence (P43490 whole entry): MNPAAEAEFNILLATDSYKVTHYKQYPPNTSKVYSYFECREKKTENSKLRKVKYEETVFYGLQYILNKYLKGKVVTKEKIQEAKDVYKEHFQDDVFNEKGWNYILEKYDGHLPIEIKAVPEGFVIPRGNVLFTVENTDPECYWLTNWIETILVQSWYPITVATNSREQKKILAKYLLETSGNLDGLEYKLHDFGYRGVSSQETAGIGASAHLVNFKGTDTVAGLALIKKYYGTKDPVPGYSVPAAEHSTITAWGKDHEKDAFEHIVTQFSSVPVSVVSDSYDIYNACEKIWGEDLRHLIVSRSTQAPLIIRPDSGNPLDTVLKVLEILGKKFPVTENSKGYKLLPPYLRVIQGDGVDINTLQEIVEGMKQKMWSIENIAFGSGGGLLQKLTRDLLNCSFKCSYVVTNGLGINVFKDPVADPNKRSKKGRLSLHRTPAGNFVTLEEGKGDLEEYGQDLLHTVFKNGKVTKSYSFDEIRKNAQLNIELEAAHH
- protocol_details: NMN fluorescence biochemical assay (stimulation of NMN synthesis by NAMPT)
- test_context: NMN synthesis by purified human NAMPT (100 nM); concentration giving half-maximal activation; read-out: Enzymatic EC50
- Experimental: Certain compounds described herein were assayed for their ability to stimulate the synthesis of nicotinamide mononucleotide (NMN) by human enzyme NAMPT (full length). […] Fluorescence (Ex/Em=382/445 nm) was measured using an Envision plate reader. The potency measurements for the test compounds were quantified and represented as EC50 (concentration of a compound that gives half-maximal activation) and Emax (fold change of a compound's maximal activation compared to DMSO).
In this section, each of the compounds is paired with its reported EC50.

Below, 6 compounds whose answers are already recorded.
- compound: "N#Cc1cccc(CC2c3ccccc3C(=O)N2Cc2ccc3[nH]c(=O)oc3c2)c1 (centres unmarked)"
  EC50: "0.5 to 5 µM"
- compound: "O=c1ccc2ccccc2n1Cc1ccc(O)cc1 [Compound 5, 1-(4-hydroxybenzyl)quinolin-2(1H)-one]"
  EC50: "≥ 5 µM"
- compound: "COc1nc2cc(CN3C(=O)c4ccccc4C3Cc3ncccc3Br)ccc2[nH]1 (centres unmarked)"
  EC50: "0.5 to 5 µM"
- compound: "CC1c2cc(C3CCCC3)ccc2C(=O)N1Cc1ccc2[nH]c(=O)oc2c1 (single isomer, unassigned)"
  EC50: "0.5 to 5 µM"
- compound: "Cc1ncccc1CC1c2ccccc2C(=O)N1Cc1ccc2[nH]c(=O)oc2c1 (centres unmarked)"
  EC50: "0.5 to 5 µM"
- compound: "O=C1c2ccccc2C(Cc2ccc(Cl)cn2)N1Cc1ccc2[nH]c(=O)oc2c1 (centres unmarked)"
  EC50: "0.5 to 5 µM"

stdin: # input compound: O=C1c2ccccc2C(CC2CCOCC2)N1Cc1ccc2[nH]c(=O)oc2c1 (centres unmarked) ; wanted: its EC50
stdout: ≥ 5 µM

stdin: # input compound: Cn1ncc(Cl)c1CC1c2ccccc2C(=O)N1Cc1ccc2[nH]c(=O)oc2c1 (centres unmarked) ; wanted: its EC50
stdout: < 0.5 µM

stdin: # input compound: O=C1c2ccc(C3CC3)cc2C(Cc2ccccc2)N1Cc1ccc2[nH]c(=O)oc2c1 (centres unmarked) ; wanted: its EC50
stdout: < 0.5 µM

stdin: # input compound: O=C1c2ccccc2C(Cc2ncccc2Br)N1Cc1ccc2[nH]c(Cl)nc2c1 (centres unmarked) ; wanted: its EC50
stdout: 0.5 to 5 µM

stdin: # input compound: COc1ccccc1CC1c2ccccc2C(=O)N1Cc1ccc2[nH]c(=O)oc2c1 (centres unmarked) ; wanted: its EC50
stdout: < 0.5 µM
